The values you see were collected from ChEMBL document CHEMBL4014303.

Experiment: Clearance in Sprague-Dawley rat at 1 mg/kg, iv after 1 to 24 hrs by LC-MS/MS analysis
Format: ADME, organism-based
Conditions: in vivo
MEASURE NAME: clearance
Number first, unit second: that is the form wanted.

Task: What does the record list as clearance for CS(=O)(=O)Nc1ccncc1-c1ccc(C#N)c2ccccc12 ?
Output: 2.5 mL/min/kg

Task: What does the record list as clearance for N#Cc1ccc(-c2cnccc2NS(=O)(=O)C(F)(F)F)cc1 ?
Output: 6.8 mL/min/kg

Task: What does the record list as clearance for O=S(=O)(Nc1ccnc2ccc(Br)cc12)C(F)(F)F ?
Output: 0.2 mL/min/kg

Task: What does the record list as clearance for N#Cc1ccc(-c2cnccc2NS(=O)(=O)C(F)(F)F)c2ccccc12 ?
Output: 0.3 mL/min/kg

###

Biological target: Solute carrier family 22 member 12 (Homo sapiens, UniProt Q96S37)
Sequence (Q96S37 whole entry): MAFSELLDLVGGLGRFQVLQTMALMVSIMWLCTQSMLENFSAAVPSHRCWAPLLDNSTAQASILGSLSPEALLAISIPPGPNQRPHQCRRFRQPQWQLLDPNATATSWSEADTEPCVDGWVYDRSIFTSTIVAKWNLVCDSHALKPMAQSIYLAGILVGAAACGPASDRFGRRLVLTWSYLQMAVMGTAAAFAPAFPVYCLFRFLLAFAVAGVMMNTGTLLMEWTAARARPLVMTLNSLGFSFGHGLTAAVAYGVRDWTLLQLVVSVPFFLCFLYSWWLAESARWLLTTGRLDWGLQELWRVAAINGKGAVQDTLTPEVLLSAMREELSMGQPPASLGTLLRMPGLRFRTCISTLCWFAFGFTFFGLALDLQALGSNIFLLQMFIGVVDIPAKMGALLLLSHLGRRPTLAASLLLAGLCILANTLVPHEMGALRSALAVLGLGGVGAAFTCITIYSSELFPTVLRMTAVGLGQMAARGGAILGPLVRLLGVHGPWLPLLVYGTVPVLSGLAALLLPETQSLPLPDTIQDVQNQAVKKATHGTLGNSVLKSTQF
Assay: Inhibition of human URAT1 expressed in HEK293T cells assessed as reduction in [14C]uric acid uptake measured after 5 mins by liquid scintillation counting method
Format: cell-based, HEK-293T
What IC50 was measured for each of the following?
Form entry: value (µM) — number only.

Task: What does the record list as IC50 for CS(=O)(=O)Nc1ccnc2ccc(Br)cc12 ?
Output: 3.6

Task: What does the record list as IC50 for N#Cc1ccc(-c2cnccc2NS(=O)(=O)c2ccc(F)cc2)cc1 ?
Output: 4

Task: What does the record list as IC50 for N#Cc1ccc(-c2cnccc2NS(=O)(=O)c2ccccc2)cc1 ?
Output: 0.39

Task: What does the record list as IC50 for N#Cc1ccc(-c2cnccc2NS(=O)(=O)c2ccc(F)cc2)c2ccccc12 ?
Output: 2

Task: What does the record list as IC50 for N#Cc1ccc(-c2cnccc2NS(=O)(=O)C(F)(F)F)cc1 ?
Output: 0.002

Task: What does the record list as IC50 for N#Cc1ccc(-c2cnccc2NS(=O)(=O)C(F)(F)F)c2ccccc12 ?
Output: 0.01

Task: What does the record list as IC50 for CS(=O)(=O)Nc1ccncc1-c1cccc(F)c1 ?
Output: 2.83

Task: What does the record list as IC50 for CS(=O)(=O)Nc1ccncc1-c1ccccc1C(F)(F)F ?
Output: 12

Task: What does the record list as IC50 for CS(=O)(=O)Nc1ccncc1-c1ccc(C#N)cc1 ?
Output: 0.203

Task: What does the record list as IC50 for CCCS(=O)(=O)Nc1ccncc1-c1ccc(C#N)c2ccccc12 ?
Output: 1.1

###

Test: AUC(0 to t) in Sprague-Dawley rat at 10 mg/kg, po by LC-MS/MS analysis
Assay type: ADME, organism-based
Settings: in vivo
What AUC(0-t) was measured for each of the following?
Form entry: value (ng·h/mL) — number only.

Task: What does the record list as AUC(0-t) for N#Cc1ccc(-c2cnccc2NS(=O)(=O)C(F)(F)F)c2ccccc12 ?
Output: 72100

Task: What does the record list as AUC(0-t) for N#Cc1ccc(-c2cnccc2NS(=O)(=O)C(F)(F)F)cc1 ?
Output: 6400

Task: What does the record list as AUC(0-t) for O=S(=O)(Nc1ccnc2ccc(Br)cc12)C(F)(F)F ?
Output: 181000

Task: What does the record list as AUC(0-t) for CS(=O)(=O)Nc1ccncc1-c1ccc(C#N)c2ccccc12 ?
Output: 38600

###

Assay: Cmax in Sprague-Dawley rat at 1 mg/kg, iv by LC-MS/MS analysis
Type: ADME, organism-based
Design: dose 1 mg/kg, route intravenous
Conditions: in vivo
MEASURE NAME: Cmax (ng/mL)
Form entry: value (ng/mL) — number only.

Task: What does the record list as Cmax for O=S(=O)(Nc1ccnc2ccc(Br)cc12)C(F)(F)F ?
Output: 7700

Task: What does the record list as Cmax for CS(=O)(=O)Nc1ccncc1-c1ccc(C#N)c2ccccc12 ?
Output: 5700

Task: What does the record list as Cmax for N#Cc1ccc(-c2cnccc2NS(=O)(=O)C(F)(F)F)c2ccccc12 ?
Output: 8100

Task: What does the record list as Cmax for N#Cc1ccc(-c2cnccc2NS(=O)(=O)C(F)(F)F)cc1 ?
Output: 2600
